measurementNotes: qHTS of pediatric cancer cell lines to identify multiple opportunities for drug repurposing: Confirmatory screen for NB-EBc1 cells (AID 1347115);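 note: cells exposed to compound for 48 h before the viability read; nearly all actives have a fitted effect of over 45% in size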
conditionDetails: NB-EBc1 neuroblastoma cells, viability (cytotoxicity); series mostly up to 45.9 µM
Inconclusive results are not listed. Active and inactive are the calls of the source. Calls come from the whole dose curve; as a rule, active = well fitted cell-killing curve with a large enough effect; inconclusive = small, poorly fitted or top-dose-only effect, or effect the other way; inactive = no such curve, though single readings can be large or run the other way.
Lab note: assign the record to one of T (active), F (inactive)

CN(C)/N=N/c1nc[nH]c1C(N)=O: T
COc1cc(C=C2CCC/C(=C\c3ccc(O)c(OC)c3)C2=O)ccc1O: T
C[C@]12C=CC(=O)C=C1CC[C@@H]1[C@@H]2[C@@H](O)C[C@@]2(C)[C@H]1CC[C@]2(O)C(=O)CO: F
CC1(C)O[C@@H]2C[C@H]3[C@@H]4CCC5=CC(=O)CC[C@]5(C)[C@@]4(F)[C@@H](O)C[C@]3(C)[C@]2(C(=O)CCl)O1: F

Data request: Which outcome was assigned to COCc1c(C(C)C)nc(C(C)C)c(/C=C/[C@@H](O)C[C@@H](O)CC(=O)O)c1-c1ccc(F)cc1 in this test?
Data returned: T

Data request: Can you handle CC1(C)O[C@@H]2C[C@H]3[C@@H]4C[C@H](F)C5=CC(=O)CC[C@]5(C)[C@H]4[C@@H](O)C[C@]3(C)[C@]2(C(=O)CO)O1 next?
Data returned: F

----------
Tested on: CP194
measurementNotes: qHTS profiling for inhibitors of Plasmodium falciparum proliferation (AID 504749); note: nearly all actives have a fitted effect of over 60% in size
conditionDetails: P. falciparum in erythrocytes, SYBR Green DNA, 72 h; series mostly up to 28.7 µM
Inconclusive results are not listed. The source made the active and inactive calls. Calls come from the whole dose curve; as a rule, active = well fitted inhibition curve with a large enough effect; inconclusive = small, poorly fitted or top-dose-only effect; inactive = flat fitted curve, though single readings scatter.
Give your call using only these classes: y for active, n for inactive

A selection of reference data follows.
CCCCOc1cc(C(=O)NCCN(CC)CC)c2ccccc2n1: n
CCCCC(CC)CN=C(N)NC(N)=NCCCCCCN=C(N)NC(N)=NCC(CC)CCCC (stereo unspecified): y
CC(C)COC(=O)OCN1C(=O)CN(CCN2CC(=O)N(COC(=O)OCC(C)C)C(=O)C2)CC1=O: n
C#C[C@]1(O)CC[C@H]2[C@@H]3CCc4cc(OC5CCCC5)ccc4[C@H]3CC[C@@]21C: n
OCc1ccccc1O: n

Data request: Check the results log: what was the call for CCCn1c(=O)[nH]c(=O)c2[nH]cnc21 ?
Data returned: n

Data request: Continue with CCCCCC=CCC=CCCCCCCCC(=O)OCC
Data returned: n

----------
measurementNotes: qHTS of pediatric cancer cell lines to identify multiple opportunities for drug repurposing: Confirmatory screen for RD cells (AID 1347124);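 note: cells exposed to compound for 48 h before viability readout; nearly all actives have a fitted effect of over 65% in size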
conditionDetails: RD rhabdomyosarcoma cell viability; series mostly up to 45.9 µM
Records with an inconclusive call do not appear. Active and inactive are the calls of the source. The call rests on the fitted dose curve; in most records, active means well fitted cell-killing curve with a large enough effect; inconclusive means small, poorly fitted or top-dose-only effect, or effect the other way; inactive means no such curve, though single readings can be large or run the other way.
Field 'call' accepts y = active, n = inactive

Solved entries (count: 2):
C=C1C[C@H]2[C@@H]3C=C(C)C4=CC(=O)CC[C@]4(C)[C@H]3CC[C@]2(C)[C@@]1(OC(C)=O)C(C)=O: n
COc1cc(C=C2CCC/C(=C\c3ccc(O)c(OC)c3)C2=O)ccc1O: y

Data request: Dear colleague, could you share the recorded outcome for NC(CO)(CO)CO when you have a moment?
Data returned: n

Data request: Let us now turn to CC(=O)OCC(=O)[C@@]1(OC(C)=O)[C@@H](C)C[C@H]2[C@@H]3C[C@H](F)C4=CC(=O)C=C[C@]4(C)[C@@]3(F)[C@@H](O)C[C@@]21C
Data returned: n

Data request: Follow-up item: CCCCC(CC)CN=C(N)NC(N)=NCCCCCCN=C(N)NC(N)=NCC(CC)CCCC (centres undefined)
Data returned: y

Data request: Try this compound too: C[n+]1c2cc(N)ccc2cc2ccc(N)cc21 (tested in a mixture with another compound)
Data returned: y

Data request: Follow-up item: CCCC(=O)O[C@]1(C(=O)CO)CC[C@H]2[C@@H]3CCC4=CC(=O)CC[C@]4(C)[C@H]3[C@@H](O)C[C@@]21C
Data returned: n

Data request: Again, but for C[C@]12C=CC(=O)C=C1CC[C@@H]1[C@@H]2[C@@H](O)C[C@@]2(C)[C@H]1CC[C@]2(O)C(=O)CO
Data returned: n

Data request: Follow-up item: OC[C@H]1O[C@@H](n2cnc3c(=S)nc[nH]c32)[C@H](O)[C@@H]1O
Data returned: n

Data request: Moving on to the next compound: CC(=O)OCC(=O)[C@@]1(O)CC[C@H]2[C@@H]3CCC4=CC(=O)C=C[C@]4(C)[C@H]3[C@@H](O)C[C@@]21C
Data returned: n

Data request: Can you handle CN(C)/N=N/c1nc[nH]c1C(N)=O next?
Data returned: n

Data request: Try this compound next: Oc1ccc(O)cc1
Data returned: n

Data request: Repeat for the following compound: CC(=O)Oc1ccc(C(c2ccc(OC(C)=O)cc2)c2ccccn2)cc1
Data returned: n

Data request: Query COCc1c(C(C)C)nc(C(C)C)c(/C=C/[C@@H](O)C[C@@H](O)CC(=O)O)c1-c1ccc(F)cc1 next
Data returned: y

----------
measurementNotes: qHTS of pediatric cancer cell lines to identify multiple opportunities for drug repurposing: Primary screen for OHS-50 cells (AID 1347103); note: nearly all actives have a fitted effect of over 40% in size
conditionDetails: OHS-50 osteosarcoma viability, CellTiter-Glo luminescence, 48 h; series mostly up to 57.3 µM
Inconclusive results are not listed. Active and inactive are the calls of the source. Calls come from the whole dose curve; as a rule, active = well fitted cell-killing curve with a large enough effect; inconclusive = small, poorly fitted or top-dose-only effect; inactive = no such curve, though single readings can be large or run the other way.
Field 'call' accepts active, inactive

NCCC(O)(P(=O)(O)O)P(=O)(O)O: inactive
CC(=O)OCC(=O)[C@@]1(O)[C@H](C)C[C@H]2[C@@H]3CCC4=CC(=O)C=C[C@]4(C)[C@@]3(F)[C@@H](O)C[C@@]21C: inactive
CCN(CC)CCOc1ccc(C(O)(Cc2ccc(Cl)cc2)c2ccc(C)cc2)cc1 (centres undefined): active
NC(CS)C(=O)O (centres undefined): inactive
COc1ccc(CN2CCN(C(c3ccc(F)cc3)c3ccc(F)cc3)CC2)c(OC)c1OC: active
CN(C)CC/C=C1/c2ccccc2COc2ccc(CC(=O)O)cc21: inactive
Cc1ncc(CSSCc2cnc(C)c(O)c2CO)c(CO)c1O: inactive
COc1ccc(C2C(=O)c3ccccc3C2=O)cc1: inactive
COc1cc(-c2ccc(=O)[nH]n2)ccc1OC(F)F: inactive
CCCOC(C(=O)OC1CCN(C)CC1)(c1ccccc1)c1ccccc1: active

Data request: Short answer needed: outcome of this test for CN(C)/N=N/c1nc[nH]c1C(N)=O ?
Data returned: active

Data request: Same thing, different molecule: O=C1OC(c2ccc(O)cc2)(c2ccc(O)cc2)c2ccccc21
Data returned: inactive

Data request: Input O=C(O)CCCCC(=O)O
Data returned: inactive

Data request: Then CCCSS/C(CCO)=C(\C)N(C=O)Cc1cnc(C)nc1N ?
Data returned: active

----------
Tested on: JCK
measurementNotes: qHTS profiling for inhibitors of Plasmodium falciparum proliferation (AID 504749); note: nearly all actives have a fitted effect of over 60% in size
conditionDetails: P. falciparum in erythrocytes, SYBR Green DNA, 72 h; series mostly up to 28.7 µM
Results filed as inconclusive are left out. Activity calls are given as the source filed them. Calls follow the shape of the dose curve; as a rule, active = well fitted inhibition curve with a large enough effect; inconclusive = small, poorly fitted or top-dose-only effect; inactive = flat fitted curve, though single readings scatter.
Hi there, use one of these labels in your reply, thanks! active, inactive

Worked examples follow.
CCN(CC)CCNC(=O)COc1ccc(Cl)cc1: inactive
CCOc1ccc(Cc2nccc3cc(OCC)c(OCC)cc23)cc1OCC: active
CCOC(=O)/C=C(C)/C=C/C=C(C)/C=C/c1c(C)cc(OC)c(C)c1C: inactive
O=C(COc1ccc(Cl)cc1)N1CCN(Cc2ccc3c(c2)OCO3)CC1: inactive
Cc1cccn2c(=O)c(-c3nnn[nH]3)cnc12: inactive
COc1cc2c(cc1OC)C(C(C(=O)N(CCc1ccc(OC)c(OC)c1OC)CCc1ccc(OC)c(OC)c1OC)c1ccccc1)=NCC2 (stereo unspecified): active
Cc1c(C(C)C)c(=O)n(-c2ccccc2)n1C: inactive
CN1CCC(=C2c3ccccc3Sc3ccccc32)CC1: inactive

Data request: Query: recorded result category for CN(C(=O)CN(CCO)CC(=O)N(C)C(C)(C)Cc1ccccc1)C(C)(C)Cc1ccccc1 in this test
Data returned: inactive

Data request: // same read-out, input: Oc1c(Cl)cc(Cl)cc1Sc1cc(Cl)cc(Cl)c1O
Data returned: inactive

Data request: Same again, this time with CCCCCCC[N+](CC)(CC)CCCCc1ccc(Cl)cc1
Data returned: active

----------
measurementNotes: Drug repurposing screens with cells derived from glioblastoma tumor samples (AID 1345199); note: % is set by controls: 0 for no effect and ±100 for the full control effect; nearly all actives have a fitted effect of over 40% in size
conditionDetails: GBM patient neurospheres viability, ATP luminescence, 48 h; at 45.9 µM (top of the series); tumour line B
Results filed as inconclusive are left out.
Kindly supply the reported activity, negative = cell killing values for the records listed here.
Give bare numbers, in %.

Observe how each entry below is paired with its result.
CC(=O)OCC(=O)[C@@]1(O)[C@H](C)C[C@H]2[C@@H]3CCC4=CC(=O)C=C[C@]4(C)[C@@]3(F)[C@@H](O)C[C@@]21C: 1.42
C[C@]12CC[C@@H]3c4ccc(O)cc4CC[C@H]3[C@@H]1C[C@@H](O)[C@@H]2O: -9.53
C1CCc2nnnn2CC1: -2.41
CCCC(=O)O[C@]1(C(=O)CO)CC[C@H]2[C@@H]3CCC4=CC(=O)CC[C@]4(C)[C@H]3[C@@H](O)C[C@@]21C: 1.95
OC[C@@H](O)[C@@H](O[C@@H]1O[C@H](CO)[C@H](O)[C@H](O)[C@H]1O)[C@H](O)[C@@H](O)CO: -6.48

Fill in activity, negative = cell killing for each of the 3 compounds listed.
1. CC(C)COC(=O)OCN1C(=O)CN(CCN2CC(=O)N(COC(=O)OCC(C)C)C(=O)C2)CC1=O
2. CC(C)COC(=O)c1ccc(N)cc1
3. COc1cccc2c1C(=O)c1c(O)c3c(c(O)c1C2=O)C[C@@](O)(C(=O)CO)C[C@@H]3O[C@H]1C[C@H](N)[C@H](O)[C@H](C)O1

Data returned:
-7.7
-9.56
-6.08
